Measured relative IC50, listed per entry.
test system: UT-SCC-28; assay: relative IC50 (midpoint of the fitted curve; maximal inhibition may be below 50%); higher = less potent; settings: culture condition: embedded in Matrigel; treatment time: 3 days

Cn1c(=O)n(-c2ccc(C(C)(C)C#N)cc2)c2c3cc(-c4cnc5ccccc5c4)ccc3ncc21    > 989 nM

Query: What value of relative IC50 has been recorded for this entry: `CN(C)C/C=C/C(=O)Nc1cc2c(Nc3ccc(F)c(Cl)c3)ncnc2cc1O[C@H]1CCOC1`
Result: > 989 nM

Query: What value of relative IC50 has been recorded for this entry: `C#Cc1cccc(Nc2ncnc3cc(OCCOC)c(OCCOC)cc23)c1`
Result: > 9890 nM
